For each of the compounds below, state its Fik Kinase %Inhibition.
# measuredTarget: FLK-1 receptor (Mus musculus)
# Construct: expressed in transfected cells; host or cells: NIH3T3 C7#3
# Sequence (P35918 20-1345): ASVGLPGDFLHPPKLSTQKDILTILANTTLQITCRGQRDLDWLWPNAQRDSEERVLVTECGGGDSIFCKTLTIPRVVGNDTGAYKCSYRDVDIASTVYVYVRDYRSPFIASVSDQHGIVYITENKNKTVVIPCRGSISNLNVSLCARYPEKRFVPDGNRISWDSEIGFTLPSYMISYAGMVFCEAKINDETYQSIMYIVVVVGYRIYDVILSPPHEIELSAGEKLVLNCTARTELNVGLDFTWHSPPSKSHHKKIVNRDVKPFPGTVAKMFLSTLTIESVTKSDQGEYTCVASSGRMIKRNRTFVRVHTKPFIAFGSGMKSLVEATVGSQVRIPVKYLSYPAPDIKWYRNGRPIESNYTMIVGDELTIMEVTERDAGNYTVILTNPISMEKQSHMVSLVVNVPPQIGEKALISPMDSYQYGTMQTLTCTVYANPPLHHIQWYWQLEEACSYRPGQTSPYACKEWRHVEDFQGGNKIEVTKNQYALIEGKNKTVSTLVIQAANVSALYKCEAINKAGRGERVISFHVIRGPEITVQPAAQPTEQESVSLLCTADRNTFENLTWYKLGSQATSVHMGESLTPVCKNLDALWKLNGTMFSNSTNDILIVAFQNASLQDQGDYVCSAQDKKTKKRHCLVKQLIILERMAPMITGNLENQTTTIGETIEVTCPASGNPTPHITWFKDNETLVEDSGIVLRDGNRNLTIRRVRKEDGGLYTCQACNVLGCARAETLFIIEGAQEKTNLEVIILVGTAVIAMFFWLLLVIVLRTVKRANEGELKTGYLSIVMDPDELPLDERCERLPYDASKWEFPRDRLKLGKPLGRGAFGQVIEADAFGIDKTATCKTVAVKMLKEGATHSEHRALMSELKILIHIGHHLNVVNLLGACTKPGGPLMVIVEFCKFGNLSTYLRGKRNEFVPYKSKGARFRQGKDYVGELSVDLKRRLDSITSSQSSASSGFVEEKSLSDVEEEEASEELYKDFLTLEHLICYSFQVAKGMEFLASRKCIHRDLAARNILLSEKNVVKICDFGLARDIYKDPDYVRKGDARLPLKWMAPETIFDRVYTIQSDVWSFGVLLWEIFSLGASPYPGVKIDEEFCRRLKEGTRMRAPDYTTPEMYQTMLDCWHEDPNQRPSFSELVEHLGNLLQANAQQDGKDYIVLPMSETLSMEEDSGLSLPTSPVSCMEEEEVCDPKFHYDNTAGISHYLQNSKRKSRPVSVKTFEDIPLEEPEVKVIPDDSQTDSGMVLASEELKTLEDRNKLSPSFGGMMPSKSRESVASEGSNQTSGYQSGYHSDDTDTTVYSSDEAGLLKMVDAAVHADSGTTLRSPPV
# protocolDetails: FLK-1 ELISA (kinase activity of the FLK-1 receptor in FLK-1/NIH3T3 cells, VEGF stimulated)
# Type: cell-based
Answer format: numeric, % implied, no suffix.

Req: Retrieve Fik Kinase %Inhibition measured for `O=CN1CCN(c2ccc(C=C3C(=O)Nc4ccc(I)cc43)cc2)CC1` and print it.
Resp: 24.6

Req: Retrieve Fik Kinase %Inhibition measured for `CNS(=O)(=O)c1ccc2c(c1)C(=Cc1cccc(OC)c1O)C(=O)N2` and print it.
Resp: -14.7

Req: Retrieve Fik Kinase %Inhibition measured for `Cc1csc2sc(C=C3C(=O)Nc4ccc(S(=O)(=O)Nc5ccc(C(F)(F)F)cc5)cc43)c(C)c12` and print it.
Resp: 5.1

###

For each of the compounds below, state its PDGF Kinase %Inhibition.
# measuredTarget: PDGF-R (Homo sapiens)
# Sequence (P09619 33-1106, species assumed): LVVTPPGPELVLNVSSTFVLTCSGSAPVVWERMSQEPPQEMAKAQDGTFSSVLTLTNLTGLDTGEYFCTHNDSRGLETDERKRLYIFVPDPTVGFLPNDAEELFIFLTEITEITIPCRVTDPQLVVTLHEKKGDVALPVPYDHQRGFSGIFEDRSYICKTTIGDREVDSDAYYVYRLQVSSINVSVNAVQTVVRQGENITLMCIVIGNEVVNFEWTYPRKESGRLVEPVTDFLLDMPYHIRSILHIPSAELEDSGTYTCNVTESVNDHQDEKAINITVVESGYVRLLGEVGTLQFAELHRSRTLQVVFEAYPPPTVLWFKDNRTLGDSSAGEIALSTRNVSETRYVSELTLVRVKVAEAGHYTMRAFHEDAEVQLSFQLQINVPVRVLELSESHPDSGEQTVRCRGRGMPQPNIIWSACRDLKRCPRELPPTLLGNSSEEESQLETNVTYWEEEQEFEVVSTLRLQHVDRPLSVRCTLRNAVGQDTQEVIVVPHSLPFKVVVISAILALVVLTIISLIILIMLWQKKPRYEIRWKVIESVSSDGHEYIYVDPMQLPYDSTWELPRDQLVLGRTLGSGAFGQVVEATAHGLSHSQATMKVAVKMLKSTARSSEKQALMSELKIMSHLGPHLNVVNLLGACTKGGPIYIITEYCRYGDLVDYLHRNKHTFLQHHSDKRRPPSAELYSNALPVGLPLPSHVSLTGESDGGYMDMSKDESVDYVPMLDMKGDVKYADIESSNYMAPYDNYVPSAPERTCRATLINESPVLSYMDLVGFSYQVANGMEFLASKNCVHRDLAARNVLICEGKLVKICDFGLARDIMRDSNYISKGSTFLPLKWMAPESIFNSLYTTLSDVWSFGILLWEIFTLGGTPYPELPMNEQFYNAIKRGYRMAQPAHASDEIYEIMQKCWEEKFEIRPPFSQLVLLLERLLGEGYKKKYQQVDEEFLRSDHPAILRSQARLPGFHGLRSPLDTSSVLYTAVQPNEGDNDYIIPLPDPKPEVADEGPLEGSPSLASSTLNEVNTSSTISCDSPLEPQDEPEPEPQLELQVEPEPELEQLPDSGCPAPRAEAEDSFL
# protocolDetails: PDGF-R ELISA
# Assay type: cell-based
Kindly report the value followed by its unit.

Req: Retrieve PDGF Kinase %Inhibition measured for Cc1c(Br)ccc2c1C(=Cc1ccccc1Sc1ccc(Cl)cc1)C(=O)N2 [10727/C05] and print it.
Resp: 7.9%

Req: Retrieve PDGF Kinase %Inhibition measured for Cc1ccc(C=C2C(=O)Nc3ccc(S(=O)(=O)Nc4ccc(C(F)(F)F)cc4)cc32)o1 [10725/E04] and print it.
Resp: 3.1%

Req: Retrieve PDGF Kinase %Inhibition measured for CNS(=O)(=O)c1ccc2c(c1)C(=Cc1ccc3c(c1)Cc1ccccc1-3)C(=O)N2 [10728/D06] and print it.
Resp: 5.8%

Req: Retrieve PDGF Kinase %Inhibition measured for CCn1c2ccccc2c2cc(C=C3C(=O)Nc4ccc(I)cc43)ccc21 [10731/B02] and print it.
Resp: 13.2%

Req: Retrieve PDGF Kinase %Inhibition measured for Cc1c(Br)ccc2c1C(=Cc1cc(I)c(OCc3ccccc3)c(C(C)(C)C)c1)C(=O)N2 [10733/C02] and print it.
Resp: 15.1%

Req: Retrieve PDGF Kinase %Inhibition measured for O=C1Nc2ccc(S(=O)(=O)Nc3ccc(C(F)(F)F)cc3)cc2C1=Cc1cc2ccccc2nc1Cl [10730/E08] and print it.
Resp: 48.4%

Req: Retrieve PDGF Kinase %Inhibition measured for O=C1Nc2ccc(I)cc2C1=Cc1c[nH]cn1 [10725/B11] and print it.
Resp: 66.3%

Req: Retrieve PDGF Kinase %Inhibition measured for O=C1Nc2ccc(CCCl)cc2C1=Cc1ccc2c(c1)Cc1ccccc1-2 [10728/G06] and print it.
Resp: -13.3%

Req: Retrieve PDGF Kinase %Inhibition measured for O=C1Nc2ccc(S(=O)(=O)N3CCOCC3)cc2C1=Cc1c[nH]cn1 [10725/F11] and print it.
Resp: 20.3%

Req: Retrieve PDGF Kinase %Inhibition measured for CNS(=O)(=O)c1ccc2c(c1)C(=Cc1cc3ccccc3o1)C(=O)N2 [10724/D07] and print it.
Resp: 7.0%

Req: Retrieve PDGF Kinase %Inhibition measured for CCN(CC)c1ccc(C=C2C(=O)Nc3ccc(S(=O)(=O)NC)cc32)c(O)c1 [10734/D05] and print it.
Resp: 8.2%

Req: Retrieve PDGF Kinase %Inhibition measured for CC(C)c1cc(C=C2C(=O)Nc3ccc(S(=O)(=O)Nc4ccc(C(F)(F)F)cc4)cc32)cc(C(C)C)c1Oc1ccccc1 [10732/E04] and print it.
Resp: 29.5%

Req: Retrieve PDGF Kinase %Inhibition measured for CC(C)(C)c1cc(C=C2C(=O)Nc3ccc(S(=O)(=O)N4CCOCC4)cc32)cc(I)c1OCc1ccccc1 [10733/F02] and print it.
Resp: 3.8%

Req: Retrieve PDGF Kinase %Inhibition measured for CNS(=O)(=O)c1ccc2c(c1)C(=Cc1c[nH]cn1)C(=O)N2 [10725/D11] and print it.
Resp: 23.2%

Req: Retrieve PDGF Kinase %Inhibition measured for O=C1Nc2c(Br)cc(Br)cc2C1=Cc1cccc(F)c1O [10734/A08] and print it.
Resp: 9.1%

Req: Retrieve PDGF Kinase %Inhibition measured for CNS(=O)(=O)c1ccc2c(c1)C(=Cc1cc(Br)c(OC)c(C(C)(C)C)c1)C(=O)N2 [10732/D07] and print it.
Resp: -3.8%

Req: Retrieve PDGF Kinase %Inhibition measured for CCN(CC)c1ccc(C=C2C(=O)Nc3c(Br)cc(Br)cc32)cc1 [10727/A02] and print it.
Resp: -10.3%

###

# measuredTarget: EGFR (Homo sapiens)
# Construct: Add 7 ug A431 cell lysate per well (EGFR source); endogenous in cells; host or cells: A431
# Sequence (P00533 25-1210): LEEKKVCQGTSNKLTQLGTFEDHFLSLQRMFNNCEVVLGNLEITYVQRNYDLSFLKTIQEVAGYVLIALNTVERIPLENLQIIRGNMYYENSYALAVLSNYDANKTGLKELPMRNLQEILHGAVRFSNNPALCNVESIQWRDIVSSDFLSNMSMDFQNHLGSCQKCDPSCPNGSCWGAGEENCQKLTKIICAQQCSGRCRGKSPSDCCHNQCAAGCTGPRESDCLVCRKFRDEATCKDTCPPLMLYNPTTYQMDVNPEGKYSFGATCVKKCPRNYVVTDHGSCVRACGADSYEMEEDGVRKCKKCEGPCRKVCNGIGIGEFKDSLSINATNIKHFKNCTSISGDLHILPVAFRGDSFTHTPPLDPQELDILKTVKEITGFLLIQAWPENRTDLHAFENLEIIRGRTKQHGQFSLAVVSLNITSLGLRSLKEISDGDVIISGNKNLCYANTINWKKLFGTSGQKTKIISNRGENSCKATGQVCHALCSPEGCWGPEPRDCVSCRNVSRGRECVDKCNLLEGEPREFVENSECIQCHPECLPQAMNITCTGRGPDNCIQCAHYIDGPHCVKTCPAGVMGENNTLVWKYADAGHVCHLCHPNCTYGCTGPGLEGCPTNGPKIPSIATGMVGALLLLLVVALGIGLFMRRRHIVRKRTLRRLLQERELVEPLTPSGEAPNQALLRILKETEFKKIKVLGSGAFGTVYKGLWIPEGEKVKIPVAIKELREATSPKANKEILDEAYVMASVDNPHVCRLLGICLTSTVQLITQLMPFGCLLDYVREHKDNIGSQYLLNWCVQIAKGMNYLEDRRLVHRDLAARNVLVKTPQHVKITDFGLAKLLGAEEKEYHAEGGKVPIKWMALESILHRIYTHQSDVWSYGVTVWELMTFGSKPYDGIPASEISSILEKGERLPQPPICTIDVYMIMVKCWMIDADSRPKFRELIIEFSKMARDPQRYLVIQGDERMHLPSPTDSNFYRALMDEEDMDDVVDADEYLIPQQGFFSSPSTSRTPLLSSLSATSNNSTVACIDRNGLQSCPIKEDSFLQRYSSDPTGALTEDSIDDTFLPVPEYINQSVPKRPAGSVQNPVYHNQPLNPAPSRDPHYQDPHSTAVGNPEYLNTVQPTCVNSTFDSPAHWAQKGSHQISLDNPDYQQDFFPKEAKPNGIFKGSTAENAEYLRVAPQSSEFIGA
# protocolDetails: EGFR ELISA assay (in vitro kinase activity, EGFR captured from A431 cell lysate)
# Format: biochemical
# Set-up: concentration or dose not given beside the values
parameter: Biochem EGFR %Inhibition (%)
Answer format: numeric, % implied, no suffix.

Req: Retrieve Biochem EGFR %Inhibition measured for `CCCCN(CCCC)c1ccc(C=C2C(=O)Nc3ccc(CCCl)cc32)cc1` and print it.
Resp: 3.3

Req: Retrieve Biochem EGFR %Inhibition measured for O=C1Nc2ccc(S(=O)(=O)Nc3ccc(C(F)(F)F)cc3)cc2C1=CC1C=CCCC1 (stereo not drawn) and print it.
Resp: 25.7

Req: Retrieve Biochem EGFR %Inhibition measured for `CNS(=O)(=O)c1ccc2c(c1)C(=Cc1ccc([N+](=O)[O-])o1)C(=O)N2` and print it.
Resp: 5.4

Req: Retrieve Biochem EGFR %Inhibition measured for `CNS(=O)(=O)c1ccc2c(c1)C(=Cc1c(F)cccc1C(F)(F)F)C(=O)N2` and print it.
Resp: -2.9

Req: Retrieve Biochem EGFR %Inhibition measured for `O=C1Nc2ccc(S(=O)(=O)N3CCOCC3)cc2C1=Cc1ccc(Cl)c([N+](=O)[O-])c1` and print it.
Resp: -8.7

Req: Retrieve Biochem EGFR %Inhibition measured for `O=C1Nc2c(Br)cc(Br)cc2C1=Cc1ccc(F)cc1F` and print it.
Resp: 28.4

Req: Retrieve Biochem EGFR %Inhibition measured for `CCOc1ccc(C=C2C(=O)Nc3c(Br)cc(Br)cc32)cc1OC` and print it.
Resp: 43.0

Req: Retrieve Biochem EGFR %Inhibition measured for `CNS(=O)(=O)c1ccc2c(c1)C(=Cc1ccc(OC)cc1OC)C(=O)N2` and print it.
Resp: 15.3

Req: Retrieve Biochem EGFR %Inhibition measured for `COc1ccc(O)c(C=C2C(=O)Nc3ccc(Br)c(C)c32)c1` and print it.
Resp: 2.0

###

# System: MET
# protocolDetails: MET biochemical kinase assay
# Set-up: species or system human; concentration or dose not given beside the values
parameter: Met Kinase % Inhibition (%)
Answer format: numeric, % implied, no suffix.

Req: Quote MET Met Kinase % Inhibition for entry `O=C1Nc2c(Br)cc(Br)cc2C1=Cc1cc(O)c2c(c1O)CCCC2` .
Resp: 101.4

Req: Quote MET Met Kinase % Inhibition for entry C=C(C)C1CC=C(C=C2C(=O)Nc3c(Br)cc(Br)cc32)CC1 (stereo not drawn) .
Resp: 43.6

Req: Quote MET Met Kinase % Inhibition for entry `O=C1Nc2c(Br)cc(Br)cc2C1=Cc1ccc([N+](=O)[O-])cc1` .
Resp: 46.9

Req: Quote MET Met Kinase % Inhibition for entry `Cc1ccc2occ(C=C3C(=O)Nc4c(Br)cc(Br)cc43)c(=O)c2c1` .
Resp: 53.0

Req: Quote MET Met Kinase % Inhibition for entry `O=C1Nc2c(Br)cc(Br)cc2C1=Cc1ccc(O)cc1O` .
Resp: 77.3

Req: Quote MET Met Kinase % Inhibition for entry `CCOC(=O)c1cc(C=C2C(=O)Nc3ccc(S(=O)(=O)Nc4ccc(C(F)(F)F)cc4)cc32)oc1C` .
Resp: 33.4

Req: Quote MET Met Kinase % Inhibition for entry `O=C1Nc2ccc(CCCl)cc2C1=Cc1ccc(O)cc1O` .
Resp: 79.9

Req: Quote MET Met Kinase % Inhibition for entry `CCOC(=O)c1[nH]c(C=C2C(=O)Nc3ccc(S(=O)(=O)NC)cc32)c(C(=O)OC)c1C` .
Resp: 52.1

Req: Quote MET Met Kinase % Inhibition for entry `COC(=O)c1[nH]c(C)c(C=C2C(=O)Nc3ccc(S(=O)(=O)N4CCOCC4)cc32)c1C(=O)OC` .
Resp: 67.9

Req: Quote MET Met Kinase % Inhibition for entry `COc1ccc2ccccc2c1C=C1C(=O)Nc2ccc(Br)c(C)c21` .
Resp: 18.2

Req: Quote MET Met Kinase % Inhibition for entry `O=C1Nc2ccc(I)cc2C1=Cc1ccc(O)cc1` .
Resp: 52.2

Req: Quote MET Met Kinase % Inhibition for entry `COC(=O)Cc1c(Cl)[nH]c(C=C2C(=O)Nc3ccc(CCCl)cc32)c1C(=O)OC` .
Resp: 4.7

Req: Quote MET Met Kinase % Inhibition for entry `O=C1Nc2ccc(CCCl)cc2C1=Cc1sccc1Br` .
Resp: 30.8

Req: Quote MET Met Kinase % Inhibition for entry `CNS(=O)(=O)c1ccc2c(c1)C(=Cc1coc3cc(C)c(C)cc3c1=O)C(=O)N2` .
Resp: 40.2

Req: Quote MET Met Kinase % Inhibition for entry `Cn1c(C=C2C(=O)Nc3ccc(S(=O)(=O)Nc4ccc(C(F)(F)F)cc4)cc32)nc2ccccc21` .
Resp: 38.8

Req: Quote MET Met Kinase % Inhibition for entry `COc1cc(Br)c(O)c(C=C2C(=O)Nc3ccc(Br)c(C)c32)c1` .
Resp: 95.7

Req: Quote MET Met Kinase % Inhibition for entry `CNS(=O)(=O)c1ccc2c(c1)C(=Cc1ccccc1)C(=O)N2` .
Resp: 31.8

Req: Quote MET Met Kinase % Inhibition for entry `Cc1c(Br)ccc2c1C(=Cc1ccc(O)cc1O)C(=O)N2` .
Resp: 83.0
